# test-target: T1, Recombinant soluble extracellular domain of human MerTK (human, UniProt Q12866 21-505)
# T1 construct: SPR analyte; also called hMerTK
# T1 sequence: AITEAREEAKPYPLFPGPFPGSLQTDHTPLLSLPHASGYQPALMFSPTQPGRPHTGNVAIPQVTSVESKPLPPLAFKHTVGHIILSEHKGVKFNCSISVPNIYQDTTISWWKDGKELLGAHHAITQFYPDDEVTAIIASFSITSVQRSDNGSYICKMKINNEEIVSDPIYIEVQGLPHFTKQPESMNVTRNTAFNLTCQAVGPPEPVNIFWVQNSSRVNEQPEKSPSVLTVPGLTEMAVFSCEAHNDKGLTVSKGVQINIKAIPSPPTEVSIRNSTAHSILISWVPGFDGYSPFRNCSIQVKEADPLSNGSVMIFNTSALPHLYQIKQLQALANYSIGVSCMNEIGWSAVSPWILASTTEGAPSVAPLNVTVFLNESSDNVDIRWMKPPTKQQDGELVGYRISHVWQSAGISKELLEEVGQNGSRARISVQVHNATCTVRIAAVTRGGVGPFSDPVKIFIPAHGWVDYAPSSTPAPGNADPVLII
# method-notes: SPR, mAb captured, soluble MerTK ECD as analyte, 37 C
Entries and their Kd
Please reply with the bare figure in nM and do not write the unit itself.

Reference set, count: 3
binder	observation-type	readout-unit	meas-value
HuMAb 1B4 (antibody, human IgG1, kappa, V domains shown, Human anti-hMerTK mAb, Bin 1) VH: QLQLQESGPGLVKPSETLSLTCAVSGYSISSGNYWGWIRQSPGKGLEWIGSVDHSGSTYYSPSLKSRVTISVDTSKNQFSLKLNSVTAADTADYYCARNTMIRGVMDWFDPWGQGTLVTVSS VL: AIQLTQSPSSLSASVGDRVTITCRASQGISSALAWYQQKPGKAPKVLIYDASSLESGVPSRFSGSGSGTDFTLTISSLQPEDFATYYCQQFRSYPTFGQGTKVEIKR	Kd	nM	34.4
Humanized MAb 2L105 (antibody, human IgG1, lambda, V domains shown, Humanized variant of moMAb 2D9, Bin 2) VH: QVTLKESGPVLVKPTETLTLTCTVSGISLSSFAISWIRQPPGKALEWLAVIWTGGGTDYNSALKSRLTISKDTSKSQVVLTMTNMDPVDTATYYCASHWYLDVWGQGTTVTVSS VL: QTVVTQEPSFSVSPGGTVTLTCRSSTGAVSTSNYANWVQQTPGQAPRGLIGGANSRAPGIPDRFSGSILGNKAALTITGAQADDESDYYCALWFSNHWVFGGGTKLTVLG	Kd	nM	24.8
Humanized mAb 4M60 (antibody, human IgG1, kappa, V domains shown, Humanized variant of moMAb 4E9, Bin 2) VH: QVQLVQSGSELKKPGASVKVSCKASGNTFTTYGMSWVRQAPGQGLEWMGWINNYSGVSTYADDFKGRFVFSLDTSVSTAYLQISSLKAEDTAVYYCARDYYGSGGWVFDYWGQGTTVTVSS VL: DVVMTQSPLSLPVTLGQPASISCKSSQSLLDSEGKTYLNWLQQRPGQSPRRLMYLVSKLDSGVPDRFSGSGSGTDFTLKISRVEAEDVGVYYCWQGTHFPRTFGGGTKVEIKR	Kd	nM	50.8

Q: Field request: Kd | item: HuMAb 8N42 (antibody, V domains shown, Human anti-hMerTK mAb, Bin 1) VH: QVQLQQWGAGLLKPSETLSLTCAVYGGSFSIYYWSWIRQPPGKGLELIGEINDEGNTNYNPSLKSRVTISVDTSKNQFSLKLSSVTAADTAVYYCARGGTGDIHAFDIWGQGTMVTVSS VL: DIQMTQSPSSLSASVGDRVTITCRASQGISKWLAWYQQKPEKAPKSLIYAASSLQSGVPSRFSGSGSGTDFTLTISSLQPEDFATYYCQQYNSYPWTFGQGTKVEIKR
Ans: 5.7

Q: Field request: Kd | item: HuMAb 10K11 (antibody, human IgG1, kappa, V domains shown, Human anti-hMerTK mAb, Bin 1) VH: QLQLQESGPGLVKPSETLSLTCAVSGYSISSDYSWGWIRQPPGKGLEWIGSIYHSGNTYFNPSLKSRVTISVDTSKNQFSLKLSSVTAADTAVYYCARDKSYYFGPGSMDVWGQGTTVTVSS VL: AIQLTQSPSSLSASVGDRVTITCRASQGISSALAWYQQKPGKAPKLLIYDASSLESGVPSRFSGSGSGTDFTLTISSLQPEDFATYYCQQFKSYLTFGQGTRLEIKR
Ans: 9
